cell viability for assorted compounds
- Tested on: U2OS
- METHOD: cell viability relative to DMSO; higher = less toxic
- CONDITION_SUMMARY: 72 h; 1000 nM
MEASUREMENT_KIND: cell viability (%)

| COMPOUND | MEASUREMENT_KIND | EXPERIMENTAL_RESULT |
| --- | --- | --- |
| CCCOC(=O)c1ccc(O)cc1 [propyl 4-hydroxybenzoate] | cell viability | 98.9 |
| CC(C)(C)NCC(O)c1cc(O)cc(O)c1 (stereo not given) [TERBUTALINE HEMISULFATE] | cell viability | 100 |
| CCCC[N+]1(C)[C@@H]2C[C@@H](OC(=O)[C@H](CO)c3ccccc3)C[C@H]1[C@@H]1O[C@@H]12 (stereo not given in full) [butylscopolamine-bromide] | cell viability | 96.3 |
| CCOC(=O)N1CSC[C@H]1C(=O)O [telmesteine] | cell viability | 96.4 |
| O=C(O)/C=C/c1ccc(O)cc1 [naringeninic-acid] | cell viability | 106 |

----------
- Tested on: U2OS
- METHOD: cell viability relative to DMSO; higher = less toxic
- CONDITION_SUMMARY: 72 h; 10 nM

| MOLECULE | EXPERIMENTAL_TARGET | cell viability (%) |
| --- | --- | --- |
| C=CC(=O)Nc1cccc(Nc2nc(Nc3ccc(OCCOC)cc3)ncc2F)c1 [AVL-292] | U2OS | 100 |
| O=C(O)c1cccnc1Nc1cccc(C(F)(F)F)c1 [niflumic-acid] | U2OS | 98 |
| CN1[C@@H]2CC[C@H]1C[C@@H](OC(c1ccc(F)cc1)c1ccc(F)cc1)C2 [3-alpha-bis-(4-fluorophenyl)-methoxytropane] | U2OS | 96.1 |
| COc1ccc(C(=O)N2CCCc3cc(C4=NNC(=O)SC4C)ccc32)cc1OC (stereo not given) | U2OS | 104 |
| CCN(c1cc(C#CCN2CCOCC2)cc(C(=O)NCc2c(C)cc(C)[nH]c2=O)c1C)[C@H]1CC[C@H](N(C)CCOC)CC1 | U2OS | 95.7 |

----------
drug sensitivity score for assorted compounds
- Test system: Calu-3
- METHOD: drug sensitivity score (DSS) for viability; higher = more toxic; extreme values may be limits of the assay
- CONDITION_SUMMARY: 72 h
MEASUREMENT_KIND: drug sensitivity score

| COMPOUND | EXPERIMENTAL_RESULT |
| --- | --- |
| Clc1ccc(CO/N=C(\Cn2ccnc2)c2ccc(Cl)cc2Cl)c(Cl)c1 | 0 |
| C[C@@H](Oc1cc(-n2cnc3ccc(CN4CCN(C)CC4)cc32)sc1C(N)=O)c1ccccc1C(F)(F)F | 5.5 |
| O=C1C=CC[C@@H]2[C@H]3CCCN4CCC[C@@H](CN12)[C@@H]34 | 0 |
| CCN(c1nc(N)c(C(=O)NC(=N)N)nc1Cl)C(C)C | 0.2 |
| CN1CCCCC1Cn1cc(C(=O)c2cc([N+](=O)[O-])ccc2I)c2ccccc21 (stereo not drawn) | 0 |
| Cc1c(CN2CCN(C(=O)[C@H](C)O)CC2)sc2c(N3CCOCC3)nc(-c3cnc(N)nc3)nc12 | 11.9 |
| O=C(Oc1cccc2cccnc12)c1ccccc1 | 0 |
| CC1(C)N=C(N)N=C(N)N1OCCCOc1cc(Cl)c(Cl)cc1Cl | 0 |
| CC(=O)OCC(=O)[C@@]1(O)CC[C@H]2[C@@H]3CCC4=CC(=O)C=C[C@]4(C)[C@H]3[C@@H](O)C[C@@]21C [prednisolone-acetate] | 0 |
| Cn1cnnc1Sc1c([N+](=O)[O-])ncn1C | 1.7 |
| CCC(=O)O[C@]1(C(=O)CCl)[C@@H](C)C[C@H]2[C@@H]3C[C@H](F)C4=CC(=O)C=C[C@]4(C)[C@@]3(F)[C@@H](O)C[C@@]21C [halobetasol-propionate] | 0 |
| CN(C)C(=N)NCCC[C@H](N)C(=O)O | 0 |
| COc1ccc(CNC(=O)c2cc(-c3cncc(C)c3)ncc2-c2nccs2)nc1OC | 0 |
